Experiment: Determination of drug solubility
Assay type: physicochemical
Conditions: DMSO, organic solvent or mixture, thermodynamic from solid; read-out: Solubility DMSO
Measured attribute: solubility

Compound	solubility
CCN[C@H]1CN(CCCOC)S(=O)(=O)c2sc(S(=O)(=O)NC(=O)[C@H](C)OC(=O)[C@H](C)OC(=O)[C@H](C)O)cc21 [34-2, brinzolamide-PLA (n=3)]	> 50 mg/mL
CCN[C@H]1C[C@H](C)S(=O)(=O)c2sc(S(=O)(=O)NC(=O)[C@H](C)OC(=O)[C@H](C)OC(=O)[C@H](C)OC(=O)[C@H](C)OC(C)=O)cc21	> 50 mg/mL

Pending compound:
Given CCN[C@H]1C[C@H](C)S(=O)(=O)c2sc(S(=O)(=O)NC(=O)[C@H](C)OC(=O)[C@H](C)OC(=O)[C@H](C)OC(=O)CCC(=O)Oc3ccc4c(c3)/C(=C/c3[nH]c(C)c(C(=O)NCCN(CC)CC)c3C)C(=O)N4)cc21 , state its recorded solubility.
> 50 mg/mL
